Molecular target: Gal(b1-3)GlcNAc(b1-3)Gal(b1-4)GlcNAc(b1-3)Gal(b1-4)GlcNAc(b1-2)[Gal(b1-3)GlcNAc(b1-3)Gal(b1-4)GlcNAc(b1-3)Gal(b1-4)GlcNAc(b1-6)]Man(a1-6)[Gal(b1-3)GlcNAc(b1-3)Gal(b1-4)GlcNAc(b1-3)Gal(b1-4)GlcNAc(b1-2)Man(a1-3)]Man(b1-4)GlcNAc(b1-4)[Fuc(a1-6)]GlcNAc
Test: glycan array binding signal (z-score within array); higher = stronger binding
Settings: glycan notation: IUPAC condensed, linker removed
This is one part of a sample in which the strongest signals are shown more often than they occur.
Readings of glycan array binding signal (z-score) for the listed binders
Answer with a bare number; do not write a unit.

Solved entries (count: 8):
Threefoil (Haloarcula marismortui) (protein) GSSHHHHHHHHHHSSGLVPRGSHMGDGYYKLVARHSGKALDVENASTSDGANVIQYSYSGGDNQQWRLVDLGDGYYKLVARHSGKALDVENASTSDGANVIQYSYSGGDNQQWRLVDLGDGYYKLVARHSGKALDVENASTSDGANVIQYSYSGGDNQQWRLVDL    0.426
Mermaid2 (Stilbonema majum) (protein) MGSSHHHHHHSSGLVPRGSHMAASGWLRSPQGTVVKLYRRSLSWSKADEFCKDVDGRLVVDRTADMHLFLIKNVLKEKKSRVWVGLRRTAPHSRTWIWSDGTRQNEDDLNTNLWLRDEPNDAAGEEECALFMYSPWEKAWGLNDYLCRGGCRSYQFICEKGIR    4.69
SynCAM (Mus musculus) (protein) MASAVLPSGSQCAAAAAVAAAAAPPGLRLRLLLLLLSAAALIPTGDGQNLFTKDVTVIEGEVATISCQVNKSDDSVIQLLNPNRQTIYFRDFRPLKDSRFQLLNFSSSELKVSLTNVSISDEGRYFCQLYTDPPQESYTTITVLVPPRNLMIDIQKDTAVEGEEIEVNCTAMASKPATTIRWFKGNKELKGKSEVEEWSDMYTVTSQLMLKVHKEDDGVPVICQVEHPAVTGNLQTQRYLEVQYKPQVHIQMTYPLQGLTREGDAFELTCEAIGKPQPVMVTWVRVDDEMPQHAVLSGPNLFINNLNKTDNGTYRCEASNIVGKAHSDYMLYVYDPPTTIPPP    2.43
MAL-II (Maackia amurensis), P93248 (protein) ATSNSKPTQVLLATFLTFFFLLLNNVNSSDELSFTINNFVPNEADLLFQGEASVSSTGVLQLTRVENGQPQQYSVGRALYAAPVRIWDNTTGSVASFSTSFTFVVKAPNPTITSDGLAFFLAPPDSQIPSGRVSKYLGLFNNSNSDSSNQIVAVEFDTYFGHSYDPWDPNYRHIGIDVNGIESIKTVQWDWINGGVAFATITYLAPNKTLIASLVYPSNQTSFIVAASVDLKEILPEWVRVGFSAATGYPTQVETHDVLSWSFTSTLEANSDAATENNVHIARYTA    0.068
Mermaid1 (Stilbonema majum) (protein) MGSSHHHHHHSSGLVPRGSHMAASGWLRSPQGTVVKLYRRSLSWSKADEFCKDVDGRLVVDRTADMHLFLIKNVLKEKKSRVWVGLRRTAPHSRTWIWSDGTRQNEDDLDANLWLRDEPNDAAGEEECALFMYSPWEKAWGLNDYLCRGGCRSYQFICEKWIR    6.8
his-Lectin-24A (Drosophila melanogaster) (protein) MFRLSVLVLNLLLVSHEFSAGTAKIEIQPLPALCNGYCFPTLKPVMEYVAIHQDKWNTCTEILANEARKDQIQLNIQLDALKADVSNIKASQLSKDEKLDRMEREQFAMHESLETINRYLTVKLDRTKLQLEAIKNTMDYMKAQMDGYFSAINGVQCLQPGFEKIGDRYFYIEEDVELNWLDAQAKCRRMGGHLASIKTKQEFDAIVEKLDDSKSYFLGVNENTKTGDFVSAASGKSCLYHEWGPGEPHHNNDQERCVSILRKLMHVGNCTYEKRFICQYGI    1.49
Erv41-EDTA (Saccharomyces cerevisiae), Q04651 (protein) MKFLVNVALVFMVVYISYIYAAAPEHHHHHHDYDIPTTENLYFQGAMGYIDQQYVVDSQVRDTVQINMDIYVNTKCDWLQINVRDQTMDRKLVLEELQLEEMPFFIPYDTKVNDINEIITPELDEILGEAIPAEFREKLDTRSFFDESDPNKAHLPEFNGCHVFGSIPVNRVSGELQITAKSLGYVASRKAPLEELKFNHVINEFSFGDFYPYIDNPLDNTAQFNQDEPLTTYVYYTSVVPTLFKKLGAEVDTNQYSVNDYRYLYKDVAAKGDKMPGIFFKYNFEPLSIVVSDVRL    1.31
LSECtin (Homo sapiens), Q6UXB4 (protein) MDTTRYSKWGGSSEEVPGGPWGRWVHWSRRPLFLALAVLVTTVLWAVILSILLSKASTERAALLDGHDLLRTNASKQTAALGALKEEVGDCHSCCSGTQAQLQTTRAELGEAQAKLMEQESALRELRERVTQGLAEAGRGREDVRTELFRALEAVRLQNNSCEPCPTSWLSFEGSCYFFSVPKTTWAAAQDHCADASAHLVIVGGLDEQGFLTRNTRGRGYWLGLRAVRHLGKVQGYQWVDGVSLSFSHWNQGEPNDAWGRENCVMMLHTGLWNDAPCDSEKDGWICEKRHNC    -0.127

Kindly consider the entry below.
Input SGC, Q9M345 (protein) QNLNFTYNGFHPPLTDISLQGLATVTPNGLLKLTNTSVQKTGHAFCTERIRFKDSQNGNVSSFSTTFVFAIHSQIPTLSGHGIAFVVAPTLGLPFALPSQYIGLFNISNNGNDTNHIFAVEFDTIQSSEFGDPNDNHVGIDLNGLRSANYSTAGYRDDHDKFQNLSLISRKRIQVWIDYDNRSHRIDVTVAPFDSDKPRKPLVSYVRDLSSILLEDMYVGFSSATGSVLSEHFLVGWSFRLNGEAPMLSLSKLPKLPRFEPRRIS . Output glycan array binding signal (z-score): 4.72
